# TARGET_DESC: Env of HIV-1 strain YU2.DG (HIV-1)
# ASSAY_NOTES: cell-based or functional assay
ASSAY_ENDPOINT: neutralization IC50

Reference set, count: 2
{"columns": ["BINDER", "neutralization IC50"],
 "data": [
  ["γ44κ11 (antibody, V domains shown) VH: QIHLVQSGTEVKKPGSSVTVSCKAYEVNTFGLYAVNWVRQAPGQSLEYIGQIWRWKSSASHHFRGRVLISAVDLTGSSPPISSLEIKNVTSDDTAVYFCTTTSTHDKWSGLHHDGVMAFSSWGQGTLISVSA VL: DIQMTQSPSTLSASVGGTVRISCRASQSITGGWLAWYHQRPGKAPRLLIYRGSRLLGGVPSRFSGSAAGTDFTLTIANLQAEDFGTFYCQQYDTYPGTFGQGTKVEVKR", "> 15 µg/mL"],
  ["γ52κ3 (antibody, V domains shown) VH: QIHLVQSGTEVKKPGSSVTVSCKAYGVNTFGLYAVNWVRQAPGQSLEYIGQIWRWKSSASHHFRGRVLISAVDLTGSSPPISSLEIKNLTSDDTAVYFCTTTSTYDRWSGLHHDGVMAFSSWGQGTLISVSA VL: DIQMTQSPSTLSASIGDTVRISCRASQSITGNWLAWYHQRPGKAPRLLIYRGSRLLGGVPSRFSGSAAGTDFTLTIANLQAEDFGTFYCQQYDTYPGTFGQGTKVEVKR", "5.75 µg/mL"]
]}

Would you mind telling me what neutralization IC50 value was observed for γ22κ11 (antibody, V domains shown) VH: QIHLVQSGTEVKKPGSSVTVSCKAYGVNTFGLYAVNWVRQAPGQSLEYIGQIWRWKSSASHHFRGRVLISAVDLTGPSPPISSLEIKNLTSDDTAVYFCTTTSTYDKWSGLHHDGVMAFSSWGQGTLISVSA VL: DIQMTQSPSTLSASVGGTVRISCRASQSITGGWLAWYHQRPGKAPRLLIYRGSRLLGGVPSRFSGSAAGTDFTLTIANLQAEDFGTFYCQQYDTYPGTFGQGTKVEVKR ?
> 15 µg/mL
